Test system: M. mycetomatis genome strain MM55
Assay: CLSI M38-A2 based in vitro susceptibility screening (XTT or resazurin), growth at fixed concentration
Type: cell-based, Madurella mycetomatis
Settings: Madurella mycetomatis, 100 uM, replicate 1; read-out: Percentage survival at 100um, 100 uM A (first replicate column)
Assign classes using reported activity at 100 µM values and the ranges bottom bin: < 40%; middle bin: ≥ 40% and < 90%; top bin: ≥ 90%, please.

1. CS(=O)(=O)c1ccc(Oc2ccc(Cl)cc2)cc1 [MMV1634404]; middle bin
2. Nc1c(C(=O)NCc2ccco2)c2nc3ccccc3nc2n1CCN1CCCCC1 [MMV099714]; bottom bin
3. C[C@H]1CC[C@]2(NC1)O[C@H]1C[C@H]3[C@@H]4CC[C@H]5C[C@@H](O)CC[C@]5(C)[C@H]4CC[C@]3(C)[C@H]1[C@@H]2C [MMV003069]; middle bin
4. O=C(O)C(Cc1c[nH]c2ccccc12)N1C(=O)c2ccccc2C1=O (stereo not drawn) [MMV452821]; top bin

IN: Which bin should I file Cc1cc(O)c2c(c1)C(=O)c1c(I)c(O)c(I)c(O)c1C2=O [MMV1581545] under?
OUT: bottom bin

IN: Band of CN1c2ccc(Cl)cc2N(c2ccccc2)C(=O)c2cn(Cc3ccc(CN4CCOCC4)cc3)nc21 [MMV1782222] ?
OUT: middle bin

IN: Could you tell me which band NCc1ccc(S(N)(=O)=O)cc1 [MMV002665] belongs to?
OUT: top bin

IN: Just checking, what class would you give COc1nc2ccc(Br)cc2cc1[C@@H](c1ccccc1)[C@@](O)(CCN(C)C)c1cccc2ccccc12 [MMV689758] here?
OUT: middle bin
